All values here come from patent US10363239B2.

Listed next: entries and their corresponding Concentration of FLNA-Binding Compound as Agonist 1 μM.
System: mu opiate receptor (MOR)
assay_method_text: MOR agonist activity using [35S]GTPγS binding assay in striatal membranes
Format: biochemical
condition_description: Series C-1; 1 μM compound; [35S]GTPγS binding to Gαo, striatal membranes
Numeric answer only, unit % assumed.

- compound: "CC(O)c1ccc(S(=O)(=O)N2CCC3(CC2)OCCN3S(=O)(=O)c2ccc(C(C)O)cc2)cc1 (centres unmarked)"
  numeric_value: 170.4
- compound: "O=S(=O)(c1ccc(C(F)(F)F)cc1Br)N1CCC2(CC1)OCCN2S(=O)(=O)c1ccc(C(F)(F)F)cc1Br"
  numeric_value: 355.3
- compound: "Cc1ccc(S(=O)(=O)N2CCC3(CC2)OCCN3S(=O)(=O)c2ccc(C)cc2)cc1"
  numeric_value: 184.3
- compound: "N#Cc1ccc(S(=O)(=O)N2CCC3(CC2)OCCN3S(=O)(=O)c2ccc(C#N)cc2)cc1"
  numeric_value: 201.6
- compound: "COc1ccc(C(=O)N2CCC3(CC2)OCCN3C(=O)c2ccc(OC)cc2)cc1"
  numeric_value: 284.5

# value lookup — system mu opiate receptor (MOR), readout Concentration of FLNA-Binding Compound as Agonist 1 μM, item Cc1ccccc1S(=O)(=O)N1CCC2(CC1)OCCN2S(=O)(=O)c1ccccc1C 204.7

Same again, this time with COc1ccc(NC(=O)N2CCC3(CC2)OCCN3S(=O)(=O)c2ccc(OC)cc2)cc1 244.4

Same again, this time with COc1ccc(S(=O)(=O)N2CCC3(CC2)OCCN3S(=O)(=O)c2ccc(OC)c(OC)c2)cc1OC 210.0

Same again, this time with COc1ccc(S(=O)(=O)N2CCOC23CCN(S(=O)(=O)c2ccc(C(C)=O)cc2)CC3)cc1 206.1

Same again, this time with O=S(=O)(c1ccc(F)cc1)N1CCC2(CC1)OCCN2S(=O)(=O)c1ccc(F)cc1 308.8

====

Listed next: entries and their corresponding Concentration of FLNA-Binding Compound as Agonist 1 μM + BFNA.
System: mu opiate receptor (MOR)
assay_method_text: MOR agonist activity using [35S]GTPγS binding assay in striatal membranes
Assay type: biochemical
condition_description: Series C-1; 1 μM compound + 1 μM β-FNA
Numeric answer only, unit % assumed.

- compound: "O=C(c1ccc([N+](=O)[O-])cc1)N1CCC2(CC1)OCCN2S(=O)(=O)c1ccc([N+](=O)[O-])cc1 [Compound C0022]"
  tested_target: "mu opiate receptor (MOR)"
  numeric_value: 13.4

# value lookup — system mu opiate receptor (MOR), readout Concentration of FLNA-Binding Compound as Agonist 1 μM + BFNA, item Cc1ccccc1S(=O)(=O)N1CCC2(CC1)OCCN2S(=O)(=O)c1ccccc1C [Compound C0015] 126.8

Same again, this time with O=S(=O)(c1ccc(-c2ccccc2)cc1)N1CCC2(CC1)OCCN2S(=O)(=O)c1ccc(-c2ccccc2)cc1 [Compound C0010] 89.1

Same again, this time with O=S(=O)(c1cccs1)N1CCC2(CC1)OCCN2S(=O)(=O)c1cccs1 [Compound C0141M] 47.9

Same again, this time with O=S(=O)(c1ccc(OC(F)(F)F)cc1)N1CCC2(CC1)OCCN2S(=O)(=O)c1ccc(OC(F)(F)F)cc1 [Compound C0006] 4.6

Same again, this time with CC(=O)c1ccc(S(=O)(=O)N2CCC3(CC2)NC(=O)CN3S(=O)(=O)c2ccc(C(C)=O)cc2)cc1 [Compound C0064] 38.1

Same again, this time with O=S(=O)(c1ccc(Br)c(C(F)(F)F)c1)N1CCC2(CC1)OCCN2S(=O)(=O)c1ccc(Br)c(C(F)(F)F)c1 [Compound C0077] 136.7

Same again, this time with C[C@@H](NC(=O)[C@@H](N)Cc1ccc(O)cc1)C(=O)NCC(=O)N(C)[C@@H](Cc1ccccc1)C(=O)NCCO [DAMGO, [D-Ala2, N-MePhe4, Gly-ol]-enkephalin, reference compound] 53.2

Same again, this time with O=S(=O)(c1ccc(Br)cc1)N1CCC2(CC1)OCCN2S(=O)(=O)c1ccc(Br)cc1 [Compound C0025] 80.2

Same again, this time with COc1ccc(S(=O)(=O)N2CCC3(CC2)OCCN3S(=O)(=O)c2ccc(OC)c(OC)c2)cc1OC [Compound C0049] 81.0

Same again, this time with CC(=O)c1ccc(S(=O)(=O)N2CCC3(CC2)NCC(=O)N3Cc2ccccc2)cc1 [Compound C0082M] 97.6

====

tested_target: FLNA pentapeptide of SEQ ID NO: 1 (Bn-VAKGL) (Homo sapiens, UniProt P21333)
assay_method_text: FITC-NLX-based FLNA screening assay (inhibition of FITC-naloxone binding to Bn-VAKGL on streptavidin plates)
condition_description: read-out: Percent Binding Inhibition, FLNA-binding compound 0.01 μM; 10 nM FITC-NLX
property_measured: inhibition at 0.01 µM (%)
Numeric answer only, unit % assumed.

- compound: "O=S(=O)(c1ccc(C(F)(F)F)cc1)N1CCC2(CC1)OCCN2S(=O)(=O)c1ccc(C(F)(F)F)cc1"
  scale_unit: "%"
  numeric_value: 26.3

Form field: reported inhibition at 0.01 µM of CC(O)c1ccc(S(=O)(=O)N2CCC3(CC2)OCCN3S(=O)(=O)c2ccc(C(C)O)cc2)cc1 (centres unmarked) 27

Same again, this time with COc1ccc(S(=O)(=O)N2CCOC23CCN(C)CC3)cc1 [Compound C0088M] 40.1

Same again, this time with COc1ccc(OCC(O)CN2CC(C)OC(C)C2)cc1 (centres unmarked) 38.5

Same again, this time with COc1c2c(cc3c1C(CC(=O)CCc1ccc(F)cc1)[N+](C)(C)CC3)OCO2 (centres unmarked) 37.2

Same again, this time with COc1ccc(N2CCN(CC(O)COC3CC(C)CCC3C(C)C)CC2)c(OC)c1 (centres unmarked) 39.7

Same again, this time with COc1c2c(cc3c1C(CC(=O)Cc1ccccc1C)N(C)CC3)OCO2 (centres unmarked) 33.1

Same again, this time with CC1CCC(C(C)C)C(OCC(O)CN2CCC(=O)C(C)C2)C1 (centres unmarked) 34.4

====

Listed next: entries and their corresponding Concentration of FLNA-Binding Compound as Agonist 1 μM.
Test system: mu opiate receptor (MOR)
assay_method_text: MOR agonist activity using [35S]GTPγS binding assay in striatal membranes
Assay type: biochemical
condition_description: Series C-1; 1 μM compound; [35S]GTPγS binding to Gαo, striatal membranes
Experimental: To assess the mu opiate receptor (MOR) agonist activity of positive compounds from the FLNA screening, compounds were tested in a [^35S]GTPγS binding assay using striatal membranes. […] The immunocomplexes so formed were collected by incubation at 25° C. for 30 minutes with 40 μl of agarose-conjugated protein A/G beads and centrifugation at 5,000×g at 4° C. for 5 minutes. […] The radioactivity in the suspension was determined by liquid scintillation spectrometry.
Numeric answer only, unit % assumed.

- molecule: "O=S(=O)(c1ccc(Br)cc1F)N1CCC2(CC1)OCCN2S(=O)(=O)c1ccc(Br)cc1F"
  numeric_value: 236.6

# value lookup — system mu opiate receptor (MOR), readout Concentration of FLNA-Binding Compound as Agonist 1 μM, item CC(=O)Nc1ccc(S(=O)(=O)N2CCC3(CC2)OCCN3S(=O)(=O)c2ccc(NC(C)=O)cc2)cc1 301.2

Same again, this time with O=S(=O)(c1cccs1)N1CCC2(CC1)OCCN2S(=O)(=O)c1cccs1 [Compound C0141M] 213.9

Same again, this time with COc1cc(S(=O)(=O)N2CCC3(CC2)OCCN3S(=O)(=O)c2cc(OC)c(OC)c(OC)c2)cc(OC)c1OC 310.5

====

Test system: mu opiate receptor (MOR)
assay_method_text: MOR agonist activity using [35S]GTPγS binding assay in striatal membranes
Format: biochemical
condition_description: 1 μM + βNFA; average of two runs
property_measured: MOR agonist activity, FLNA-Binding Compound as Agonist 1 μM + βNFA (preliminary study) (%)
Numeric answer only, unit % assumed.

- molecule: "C[C@@H](NC(=O)[C@@H](N)Cc1ccc(O)cc1)C(=O)NCC(=O)N(C)[C@@H](Cc1ccccc1)C(=O)NCCO [DAMGO, [D-Ala2, N-MePhe4, Gly-ol]-enkephalin, reference compound]"
  numeric_value: 56.8
- molecule: "Cc1ccc(S(=O)(=O)N2CCOC23CCN(CC2CC2)CC3)cc1 [Compound C0134M]"
  numeric_value: 53.2
- molecule: "C=CCN1CCC2(CC1)OCCN2S(=O)(=O)c1ccc(C)cc1 [Compound 10]"
  numeric_value: 60.4
- molecule: "Cc1ccc(S(=O)(=O)N2CCOC23CCN(CC2CCC2)CC3)cc1 [Compound 9]"
  numeric_value: 56.6

Form field: reported MOR agonist activity, FLNA-Binding Compound as Agonist 1 μM + βNFA (preliminary study) of O=S(=O)(c1ccc(OC(F)(F)F)cc1)N1CCOC12CCN(CC1CC1)CC2 [Compound 4] 49.5
